study target: Dihydrofolate reductase (Homo sapiens, UniProt P00374)
Sequence (P00374 whole entry): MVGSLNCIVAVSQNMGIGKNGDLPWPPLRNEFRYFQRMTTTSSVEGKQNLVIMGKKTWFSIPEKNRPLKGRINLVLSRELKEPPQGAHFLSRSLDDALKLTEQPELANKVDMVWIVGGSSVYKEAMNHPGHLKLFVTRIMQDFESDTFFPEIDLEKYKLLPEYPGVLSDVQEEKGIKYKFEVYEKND
experiment description: Apparent dissociation constant at pH 6.6 for human dihydrofolate reductase in the presence of cofactor NADPH
experimental readout: Kd (nM)

Example entries and their recorded answers appear below.
compound	unit symbol	Kd
CC1=C2C(=O)NC(N)N=C2N(C)C=C1 (stereo not given)	nM	5100
CCCN1C(C)=CC=C2C(=O)NC(N)N=C21 (stereo not given)	nM	2000
CC1=C2C(=O)NC(N)N=C2N(CCC(C)C)C=C1 (stereo not given)	nM	700
CCN1C=C(C)C=C2C(=O)NC(N)N=C21 (stereo not given)	nM	16000
CC1=CN(C)C2=NC(N)NC(=O)C2=C1 (stereo not given)	nM	500

(1) NC1N=C2C(=CC=CN2Cc2ccccc2)C(=O)N1 (stereo not given)
(2) CC1=CC=C2C(=O)NC(N)N=C2N1C (stereo not given)
Which gives the smaller Kd number: 1 or 2 ? Give the label under which the chosen entry appears.
1

(A) CC1=C2C(=O)NC(N)N=C2N(CC(C)C)C=C1 (stereo not given)
(B) CCCN1C=CC=C2C(=O)NC(N)N=C21 (stereo not given)
(C) CC(C)CN1C=CC=C2C(=O)NC(N)N=C21 (stereo not given)
(D) CC1=CN(C(C)C)C2=NC(N)NC(=O)C2=C1 (stereo not given)
Which order do these items take when sorted by rising Kd? List them. Response field: labels, in requested order.
A, C, B, D

(A) CCCN1C=C(C)C=C2C(=O)NC(N)N=C21 (stereo not given)
(B) CC(C)N1C=CC=C2C(=O)NC(N)N=C21 (stereo not given)
Could you tell me which of A and B has the lower Kd reading? Indicate which entry you chose by stating its label.
B
